Each item that follows carries a reported solubility at 24 h.
Assay summary: physchem
Conditions used: pH 9, aqueous buffer, kinetic from dmso stock, Max Solubility

Examples with their reported solubility at 24 h follow.
CCNC(=O)Nc1nc2cc(-c3cnc(N4CCC(C)(C(=O)O)CC4)nc3)cc(-c3nccnc3C)c2s1 ... ≥ 800 µg/mL
CCNC(=O)Nc1nc2cc(-c3cnc(N4CCC(C)(C(=O)O)CC4)nc3C)cc(-c3ccccn3)c2s1 ... ≥ 800 µg/mL
CCNC(=O)Nc1nc2cc(-c3cnc(NC4COC(C)(C(=O)O)OC4)nc3)cc(-c3ccccn3)c2s1 (stereo not shown) ... 100 µg/mL

INPUT: Using the record for `CCNC(=O)Nc1nc2cc(-c3cnc(N4CCC(C)(C(=O)O)CC4)nc3)cc(-c3ccc(CC#N)cn3)c2s1` , report its solubility at 24 h.
OUTPUT: ≥ 800 µg/mL
